Tested on: Malme-3M
Assay: NCI tumour cell line growth inhibition, 48 h
Activity calls are given as the source filed them. Rule as the data show it: active = GI50 up to about 1.1 µM and inactive = higher.
Classes used: true (active), false (inactive)

- COMPOUND: "C#Cc1cccc(N2C(=O)CC(=P(c3ccccc3)(c3ccccc3)c3ccccc3)C2=O)c1"
  ASSIGNED CLASS: "false"
- COMPOUND: "C[N+](C)=C/C=C(\\Cl)c1ccc2ccccc2c1"
  ASSIGNED CLASS: "false"
- COMPOUND: "[O-][S+]1CSCS1 (configuration not stated)"
  ASSIGNED CLASS: "false"
- COMPOUND: "NCCCNCCCNCCCN"
  ASSIGNED CLASS: "false"
- COMPOUND: "C1CC2=C(C1)[Se]C(=C1Sc3nsnc3S1)[Se]2"
  ASSIGNED CLASS: "false"
- COMPOUND: "CC(=O)OC1CC2(O)C(CCC3(C)C(c4ccc(=O)oc4)CCC32O)C2(C)C1=CC(O)C1OC12 (configuration not stated)"
  ASSIGNED CLASS: "true"
- COMPOUND: "Cc1cc(O)c(C=O)c2c1C(=O)Oc1c(CO)c(O)c3c(c1O2)C(O)OC3=O (configuration not stated)"
  ASSIGNED CLASS: "false"

----------
Tested on: COLO 205
Experiment: NCI tumour cell line growth inhibition, 48 h
The source made the active and inactive calls. Cut-off read from the data, not from the text of the source: active = GI50 up to about 1.1 µM and inactive = higher.
// reported GI50 for each item listed

- COMPOUND: "CCc1cccc(C(C)(C)C)c1NC(=S)N/C=C(/C#N)C(N)=O"
  ASSAYED TARGET: "COLO 205"
  GI50: "> 100 µM (inactive)"
- COMPOUND: "C=C(C)[C@H]1[C@@H]2OC(=O)[C@H]1[C@]1(O)C[C@H]3OC34C(=O)O[C@H]2[C@@]41C.CC(C)(O)[C@H]1[C@@H]2OC(=O)[C@H]1[C@]1(O)C[C@H]3OC34C(=O)O[C@H]2[C@@]41C (stereo partly drawn)"
  ASSAYED TARGET: "COLO 205"
  GI50: "> 100 µM (inactive)"
- COMPOUND: "COc1ccc(/C=C/C(=O)c2sc(-n3nc(-c4ccccc4)cc3-c3ccccc3)nc2C)cc1"
  ASSAYED TARGET: "COLO 205"
  GI50: "> 10 µM (inactive)"
- COMPOUND: "O=C1Oc2ccccc2C(=O)/C1=C\\Nc1nc(-c2ccc(O)c(O)c2)cs1"
  ASSAYED TARGET: "COLO 205"
  GI50: "2.3 µM (inactive)"
- COMPOUND: "Cc1ccc2oc3c(ccc(=O)n3C)c(=O)c2c1"
  ASSAYED TARGET: "COLO 205"
  GI50: "> 100 µM (inactive)"
- COMPOUND: "O=C1/C(=C/c2ccc3c(c2)OCO3)SC2C=Nc3ccccc3N12 (stereo not drawn)"
  ASSAYED TARGET: "COLO 205"
  GI50: "> 100 µM (inactive)"
- COMPOUND: "COc1cc([C@@H]2c3cc4c(cc3[C@H](OC3OC5COC(c6ccco6)OC5C(O)C3O)C3COC(=O)[C@@H]32)OCO4)cc(OC)c1OC (stereo partly drawn)"
  ASSAYED TARGET: "COLO 205"
  GI50: "4.06 µM (inactive)"
- COMPOUND: "Cc1cc(O)c(C(C)C)cc1/N=C/c1ccccc1O"
  ASSAYED TARGET: "COLO 205"
  GI50: "25.5 µM (inactive)"
- COMPOUND: "COc1ccc(C[C@@H](C(=O)O[C@H](C)[C@H](NC(=O)[C@@H](CC(C)C)N(C)C(=O)C2CCCN2C(=O)[C@H](C)O)C(=O)N2CCCCNC(=O)[C@@H](C)C(=O)[C@H](C(C)C)OC(=O)C[C@H](O)[C@H]2CC(C)C)N(C)C(C)=O)cc1 (stereo partly drawn)"
  ASSAYED TARGET: "COLO 205"
  GI50: "6.82 µM (inactive)"
- COMPOUND: "Cc1cc(C(C)(C)C)c(OCCCN2CCOCC2)c(C(C)(C)C)c1"
  ASSAYED TARGET: "COLO 205"
  GI50: "15.7 µM (inactive)"
- COMPOUND: "Nc1ccc(Oc2ccc(C34CC5CC6C3CC3CC4C(C5)C6(c4ccc(Oc5ccc(N)cc5)cc4)C3)cc2)cc1"
  ASSAYED TARGET: "COLO 205"
  GI50: "< 0.01 µM (active)"
- COMPOUND: "O=S(=O)(c1cccc(N=C=S)c1)c1cccc(N=C=S)c1"
  ASSAYED TARGET: "COLO 205"
  GI50: "19.5 µM (inactive)"
- COMPOUND: "Nc1nc(Nc2ccccc2)c2[nH]cnc2n1"
  ASSAYED TARGET: "COLO 205"
  GI50: "89.9 µM (inactive)"
- COMPOUND: "OCC(O)COc1c(Cl)ccc(Cl)c1Cl (stereo not drawn)"
  ASSAYED TARGET: "COLO 205"
  GI50: "> 100 µM (inactive)"
- COMPOUND: "Cn1c2ccccc2c(=O)c2cccc(C(=O)NC(CCC(N)=O)C(=O)O)c21 (stereo not drawn)"
  ASSAYED TARGET: "COLO 205"
  GI50: "> 100 µM (inactive)"
- COMPOUND: "Oc1ccc(NCn2c(=S)sc3ccccc32)cc1"
  ASSAYED TARGET: "COLO 205"
  GI50: "> 100 µM (inactive)"
- COMPOUND: "O=C1CC2CCC(C1)[S+]2[O-] (stereo not drawn)"
  ASSAYED TARGET: "COLO 205"
  GI50: "> 100 µM (inactive)"
- COMPOUND: "C=CCNC(=O)NCCCC(NC(C)=O)C(=O)NCc1ccccc1 (stereo not drawn)"
  ASSAYED TARGET: "COLO 205"
  GI50: "> 100 µM (inactive)"

----------
Test system: DLD-1
Test: NCI tumour cell line growth inhibition, 48 h
Activity calls are given as the source filed them. Cut-off read from the data, not from the text of the source: active = GI50 up to about 1.1 µM and inactive = higher.
Classes used: Y (active), N (inactive)

- COMPOUND: "O=C(c1ccc(Cl)cc1)c1ccc(OCCCOc2ccc(C(=O)c3ccc(Cl)cc3)cc2)cc1"
  ASSIGNED CLASS: "N"
- COMPOUND: "O=c1cc(-c2ccccc2)oc2ccc(Cl)cc12"
  ASSIGNED CLASS: "N"
- COMPOUND: "O=C(O)/C=C\\C(=O)c1ccc(Cl)cc1"
  ASSIGNED CLASS: "N"
- COMPOUND: "Nc1ccc(C(=O)NN2C(=O)C(Cl)C2c2cc(Br)cc(Br)c2O)cc1 (stereo unspecified)"
  ASSIGNED CLASS: "N"
- COMPOUND: "O=S(=O)(c1cccc(N=C=S)c1)c1cccc(N=C=S)c1"
  ASSIGNED CLASS: "N"
- COMPOUND: "N#CCCn1c(S)nnc1CCC(=O)Nc1ccc(Cl)cc1Cl"
  ASSIGNED CLASS: "N"
- COMPOUND: "C#Cc1cccc(N2C(=O)CC(=P(c3ccccc3)(c3ccccc3)c3ccccc3)C2=O)c1"
  ASSIGNED CLASS: "N"
- COMPOUND: "COC(=O)C1=C(C)N2CCOC2(C)C(C(=O)OC)C1c1ccc[nH]1 (stereo unspecified)"
  ASSIGNED CLASS: "N"
- COMPOUND: "O=C(c1nc2ccc(Cl)cc2[nH]c1=O)C(O)c1ccco1 (stereo unspecified)"
  ASSIGNED CLASS: "N"
- COMPOUND: "CC(C)CCCC(C)C1CCC2C3CC([N+](=O)[O-])=C4CC(O)CCC4(C)C3CCC12C (stereo unspecified)"
  ASSIGNED CLASS: "N"
- COMPOUND: "CC1(Cl)CC2OC3(Br)C=CC(C)(O)C2(CC1Br)C3(C)C (stereo unspecified)"
  ASSIGNED CLASS: "N"
- COMPOUND: "O=c1oc(=O)c2oc3ccccc3oc1=2"
  ASSIGNED CLASS: "N"
- COMPOUND: "CC(=O)Nc1ccc(/C=C/C(=O)c2sc(C(N)=S)nc2C)cc1"
  ASSIGNED CLASS: "N"
- COMPOUND: "COc1cccc2c1C(=O)c1c(O)c3c(c(O)c1C2=O)C[C@@](O)(C(=O)CO)C[C@@H]3OC1CC(N2CCOCC2)C(O)C(C)O1 (stereo partly specified)"
  ASSIGNED CLASS: "Y"
- COMPOUND: "COc1cc(C=O)c(-c2c(C=O)ccc3c2OCO3)c(OC)c1OC"
  ASSIGNED CLASS: "N"
- COMPOUND: "OCCCNc1ccnc2cc(Cl)ccc12"
  ASSIGNED CLASS: "N"
